Non-standard residues stand in square brackets, D forms with d. Residues, ends and D or L forms follow the SMILES beside them. ξ: configuration not given here. *: point of attachment. Cbz = O=C(OCc1ccccc1)*; Boc = CC(C)(C)OC(=O)*; Aib = CC(C)(N)C(=O)O; ξDap = NCC(N)C(=O)O

[
  {
    "compound": "CCOC(=O)c1ccccc1N(CC(=O)N(C)c1ccccc1)C(=O)C(F)(F)F",
    "melting point": "95 °C"
  },
  {
    "compound": "Nc1ccc(Sc2c(NCC=Cc3ccccc3)cc(C(=O)O)cc2S(N)(=O)=O)cc1",
    "melting point": "228 to 232 °C"
  },
  {
    "compound": "NC(=NO)c1ccno1",
    "melting point": "146 to 148 °C"
  },
  {
    "compound": "CC#CCOc1cc(Cc2c(F)cccc2F)ncn1",
    "melting point": "57.6 °C"
  },
  {
    "compound": "O=C(NCCO)c1ccc(NS(=O)(=O)c2ccc(F)cc2)cn1",
    "melting point": "144 to 146 °C"
  },
  {
    "compound": "Brc1cccc2ncn3ccnc3c12",
    "melting point": "215 to 216 °C"
  },
  {
    "compound": "O=C(C1CCN(S(=O)(=O)c2ccc(Cl)cc2)CC1)N1CCN(c2ccncn2)CC1",
    "melting point": "125 to 128 °C"
  },
  {
    "compound": "O=C(O)C1=Cc2cccc(Cl)c2OC1C(F)(F)F (stereo unspecified)",
    "melting point": "224 to 226 °C"
  },
  {
    "compound": "CCc1cc2c(-c3ccccc3Cl)c(N)cnc2s1",
    "melting point": "87 to 88 °C"
  },
  {
    "compound": "COc1cc(-c2ncn(CCO)c2-c2ccc(C(F)(F)F)cc2)cc(OC)c1OC",
    "melting point": "208 to 210 °C"
  },
  {
    "compound": "COC(=O)C(CNC(=O)OC(C)(C)C)NC(=O)C(C)(C)NC(=O)OCc1ccccc1 (stereo unspecified) (Cbz-[Aib]-[ξDap](Boc)-OMe)",
    "melting point": "100 to 101 °C"
  },
  {
    "compound": "CSc1nn2c(=O)[nH]c(C)nc2c1S(=O)(=O)c1ccccc1",
    "melting point": "> 300 °C"
  },
  {
    "compound": "OCc1cccc(/C=C/c2nc3cc(F)ccc3s2)n1",
    "melting point": "179 to 181 °C"
  },
  {
    "compound": "C#CCN1CC[C@H](O)C1=O",
    "melting point": "89 to 90 °C"
  },
  {
    "compound": "Cc1nn(C)c2c1N=C(c1ccc(-n3c(C)nc4cnccc43)cc1)C(C)C(=O)N2C (stereo unspecified)",
    "melting point": "222 to 225 °C"
  },
  {
    "compound": "O=C(O)CCC(=O)c1ccc2oc3ccccc3c2c1",
    "melting point": "186 to 188 °C"
  },
  {
    "compound": "N#CNC(=NC1CCN(Cc2ccccc2)CC1)NC1Cc2ccccc2C1",
    "melting point": "138 to 140 °C"
  },
  {
    "compound": "N#Cc1ccc(OCC(O)CN2CC3CC(C2)CN(C(=O)OCCCl)C3)cc1 (stereo unspecified)",
    "melting point": "104 to 105 °C"
  },
  {
    "compound": "CCOC(=O)Cc1c(C(=O)OCC)[nH]c(C)c1-c1nc(-c2ccc(OC)cc2)c(-c2ccc(OC)cc2)[nH]1",
    "melting point": "186 °C"
  },
  {
    "compound": "O=C1CNc2ncc(I)cc2N1Cc1cc(Cl)ccc1Cl",
    "melting point": "> 200 °C"
  },
  {
    "compound": "COC(=O)[C@H](CSC(=O)N(C)C)NC(C)=O",
    "melting point": "119 to 121 °C"
  }
]
